test: Cmax in Swiss mouse at 10 mg/kg, po via gavage by LC-MS/MS analysis; assay type: ADME, organism-based; parameters: route oral, dose 10 mg/kg; settings: in vivo
assay readout: Cmax (µM)
I only need the number, in µM, no unit after it.

# query: Cmax of entry `CN(C)C(=O)c1ccc(Oc2nc(-c3cnc(N)s3)nc(N3CCOCC3)n2)cc1` 12.6

====

Entries annotated with measured IC50
biological target: Cytochrome P450 2C19 (Homo sapiens, UniProt P33261); assay: Inhibition of CYP2C19 in human liver microsomes using isoform-specific probe substrates preincubated for 5 mins followed by NADPH addition by LC-MS/MS analysis
Sequence (P33261 whole entry, canonical isoform): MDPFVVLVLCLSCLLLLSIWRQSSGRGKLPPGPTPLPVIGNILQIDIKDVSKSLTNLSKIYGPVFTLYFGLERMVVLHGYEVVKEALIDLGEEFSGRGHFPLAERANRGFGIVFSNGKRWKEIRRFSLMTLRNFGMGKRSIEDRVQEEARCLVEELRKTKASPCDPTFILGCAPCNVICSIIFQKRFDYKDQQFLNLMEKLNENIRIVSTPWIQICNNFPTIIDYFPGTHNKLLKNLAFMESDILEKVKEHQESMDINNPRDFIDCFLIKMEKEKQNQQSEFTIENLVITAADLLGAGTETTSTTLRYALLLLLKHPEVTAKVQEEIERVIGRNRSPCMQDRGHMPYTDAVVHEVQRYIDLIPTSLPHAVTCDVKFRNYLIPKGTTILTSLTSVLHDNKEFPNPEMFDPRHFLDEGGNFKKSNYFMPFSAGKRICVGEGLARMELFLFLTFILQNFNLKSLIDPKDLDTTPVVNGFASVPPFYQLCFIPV

# query: IC50 of entry `CN(C)C(=O)c1ccc(Oc2nc(-c3ccnc4[nH]ccc34)nc(N3CCOCC3)n2)cc1` > 10 µM

# query: IC50 of entry `CN(C)C(=O)c1ccc(Oc2nc(-c3ccc(N)nc3)nc(N3CCOCC3)n2)cc1` > 10 µM

# query: IC50 of entry `CN(C)C(=O)c1ccc(Oc2nc(-c3cnc(N)s3)nc(N3CCOCC3)n2)cc1` > 10 µM
